Parameter pIC50: see the listing below.
Molecular target: Acyl-protein thioesterase 1 (Homo sapiens) (UniProt O75608)
Sequence (O75608 whole entry, looked up): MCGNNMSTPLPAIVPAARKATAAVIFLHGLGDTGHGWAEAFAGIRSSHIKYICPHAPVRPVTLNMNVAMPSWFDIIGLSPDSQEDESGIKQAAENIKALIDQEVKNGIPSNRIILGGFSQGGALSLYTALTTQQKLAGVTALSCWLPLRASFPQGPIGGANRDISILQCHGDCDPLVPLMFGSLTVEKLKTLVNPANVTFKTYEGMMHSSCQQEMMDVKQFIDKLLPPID
Assay: LYPLA1 and LYPLA2 inhibitor potency in vitro, late-stage follow-up, cell lysate, HeLa soluble proteome, fluorescence gel (AID 743118)
Conditions: gel-based ABPP FP-Rh fluorescence, LYPLA1
pIC50: −log10 of the molar value.

- compound: "O=C(ON1C(=O)C2CN(C(=O)N3CCCC3)CCN2C1=O)N1CCC(CCc2ccc(Cl)cc2)CC1 (stereo not given)"
  pIC50: 6.65
- compound: "O=C(ON1C(=O)C2CN(C(=O)N3CCOCC3)CCN2C1=O)N1CCC(CCc2ccc(Cl)cc2)CC1 (stereo not given)"
  pIC50: 6.91
- compound: "O=C(ON1C(=O)C2CN(C(=O)N3CCCCC3)CCN2C1=O)N1CCC(CCc2ccc(Cl)cc2)CC1 (stereo not given)"
  pIC50: 6.81
- compound: "O=C(ON1C(=O)C2CN(C(=O)c3ccc(Br)cc3)CCN2C1=O)N1CCC(CCc2ccc(Cl)cc2)CC1 (stereo not given)"
  pIC50: 6.51
- compound: "CC(C)(C)CC(=O)N1CCN2C(=O)N(OC(=O)N3CCC(CCc4ccc(Cl)cc4)CC3)C(=O)C2C1 (stereo not given)"
  pIC50: 7.04
